Target: T1, O772P 3-repeat recombinant protein (human)
T1 construct: Repeats are residues 14-452 of the entry
T1 chain: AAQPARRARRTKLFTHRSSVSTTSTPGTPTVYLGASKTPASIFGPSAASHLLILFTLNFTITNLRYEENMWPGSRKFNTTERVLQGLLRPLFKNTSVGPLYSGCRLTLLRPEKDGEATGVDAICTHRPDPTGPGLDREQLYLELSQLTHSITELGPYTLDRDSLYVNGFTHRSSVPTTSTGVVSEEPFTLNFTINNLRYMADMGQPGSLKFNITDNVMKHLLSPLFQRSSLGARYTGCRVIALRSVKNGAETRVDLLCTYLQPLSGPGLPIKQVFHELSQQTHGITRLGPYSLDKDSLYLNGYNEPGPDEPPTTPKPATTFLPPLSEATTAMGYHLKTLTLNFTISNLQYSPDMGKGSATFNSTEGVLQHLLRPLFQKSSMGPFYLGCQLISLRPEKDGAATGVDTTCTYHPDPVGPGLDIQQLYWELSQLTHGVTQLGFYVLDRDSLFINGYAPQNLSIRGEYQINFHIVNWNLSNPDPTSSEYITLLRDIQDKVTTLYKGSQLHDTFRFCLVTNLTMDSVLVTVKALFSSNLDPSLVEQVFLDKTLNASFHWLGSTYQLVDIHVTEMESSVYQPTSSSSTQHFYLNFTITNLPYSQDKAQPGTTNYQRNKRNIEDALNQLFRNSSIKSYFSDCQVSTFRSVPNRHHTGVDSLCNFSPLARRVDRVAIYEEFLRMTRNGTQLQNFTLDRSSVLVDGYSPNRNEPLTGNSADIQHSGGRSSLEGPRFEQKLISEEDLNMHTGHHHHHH
Assay: ELISA competition, plate-bound O772P 3-repeat; competitor shed CA 125/O772P
assayEndpoint: absorbance w/shed CA 125/O772P competitor (25-fold w/w excess) (OD)
Write it as a number; the unit OD goes unstated.

>>> result("monoclonal antibody 776.1 (antibody, V domains shown) VH: EVQLQQSGPELVKPGASVKISCKASGYTFTDYNIHWVKQSHGKILEWIGYIYPYNGVSDYNQNFKSKATLIVDNSSNTAYMELRSLTSEDSAVYYCARWDFGSGYYFDYWGQGTTLTVSS VL: QIVLSQSPAILFASPGETVTMTCRASSSVIYMCWNQQKPGSSPKPWIYGTSTLASGVPTRFSGSGSGTSYSLTISRVEAEDAATYYCQQWSSNPFTFGSGTKLEI")
0.977
>>> result("monoclonal antibody 117.1 (antibody, V domains shown, Murine hybridoma antibody) VH: QVTLKESGPGILQPSQTLSLTCSFSGFSLSTPGMGVGWIRQPSGKGLEWLAHIWWDDFKRDNPALKSRLTISKDTSSSQVFLKIASVDTADTATYYCVRVDGNFLSWYFDVWGAGTTVTVSS VL: DAVMTQTPLSLPVSLGDQASISCRSSQSLVHSNGNTYLHWYLQKPGQSPKLLIYKVSNRFSGVPDRFSGSGSGTDFTLRISRVEAEDLGVYFCSQSRYVPWTFGGGTKLEIK")
0.554

Entry OC125 (antibody) chain 1: QVQLQESGPELVKPGASVKISCKASGYTFTDYNMHWVKQSHGKSLEWIGYIYPYNGDTGYNQKFRNKASLTVDTSSSTAYMELRSLTSEDSAVYYWARSGGFWYFDVWGQGGTTVTVSS chain 2: DIQMTQSPAILSASPGEKVTMTCRATPSVSYMHWYQQKPGSSPKPLIYTTSNLASGVPARFSGGGSGTSYSLTVSRVEVEDAATYYCQQWSRSPPTFGAGTKLEIK : reported absorbance w/shed CA 125/O772P competitor (25-fold w/w excess) = ?
0.074
